record.smiles: COc1ccc(S(=O)(=O)Nc2cccc(C)c2NC(=O)c2ccc(F)cc2)cc1
melting point: 204 to 206 °C
//
record.smiles: O=C(O)CCc1cc2ccc(C(F)(F)F)cc2n1S(=O)(=O)c1ccccc1
melting point: 168 to 169 °C
//
record.smiles: Cc1cccc(C(=O)Nc2c[nH]nc2C(=O)NCC(F)(F)F)n1
melting point: 257 to 258 °C

* * *

The entries below are paired with their reported melting point.

molecule: N#CCc1cccc2c(-c3ccc(F)cc3)onc12
melting point: 158 to 160 °C
--
molecule: C=Cc1c(C)oc(-c2ccc(S(C)(=O)=O)cc2)c(Oc2ccc(F)cc2F)c1=O
melting point: 184 °C
--
molecule: COC(=O)c1ccc(Cn2cnc3c(Cl)nc(N)nc32)cc1
melting point: 150 to 155 °C
--
molecule: Fc1cc(Br)c2ncccc2c1
melting point: 75 to 78 °C
--
molecule: CCOC(=O)c1cccc(C)c1S(N)(=O)=O
melting point: 93 to 94 °C
--
molecule: Cc1cccc(C)c1N1Cc2ccccc2P1(C)=O (stereo unspecified)
melting point: 128 to 129 °C
--
molecule: CCN(CC)CCNC(=O)c1cc(Cl)c(N)cc1OCCC(C)O (stereo unspecified)
melting point: 136 to 138 °C
--
molecule: N#Cc1ccc(N2CCN(c3ccncc3)CC2)cc1
melting point: 155 to 158 °C
--
molecule: COC(=O)c1ccc(OS(=O)(=O)C(F)(F)F)c(C23CC4CC(CC(C4)C2)C3)c1
melting point: 95 °C
--
molecule: Brc1cn2ccsc2n1
melting point: 96 to 98 °C
--
molecule: O=C(NC(=O)c1ccc(F)c(OC(F)F)c1F)NC1CC1
melting point: 128 to 130 °C
--
molecule: CCOc1cc(C(CC#N)N2C(=O)c3ccc4ccccc4c3C2=O)ccc1OC (stereo unspecified)
melting point: 163 to 165 °C
--
molecule: COc1cc(O)c2c(=O)c(OC)c(-c3ccc(N)cc3)oc2c1
melting point: 221 °C
--
molecule: CC(=O)NCCOC(=O)C(Oc1ccc(F)c(C(F)(F)F)c1)c1ccc(F)cc1 (stereo unspecified)
melting point: 100 °C
--
molecule: FC(F)(F)c1ccc(-c2cc(C(F)(F)F)n3cnc(-c4ccncc4)c3n2)cc1
melting point: 240 °C
--
molecule: COc1ccc2[nH]c3c([N+](=O)[O-])ccc(Cl)c3c(=O)c2c1Cl
melting point: 251 to 253 °C

* * *

quantity.name: melting point

compound: COc1ccccc1-c1nc(=S)n(Cc2ccccc2)[nH]1
quantity.name: melting point
observed.result: 142 to 144 °C

compound: CC(C)(C)OC(=O)Nc1ccc(Nc2n[nH]c(N)c2C#N)cc1
quantity.name: melting point
observed.result: 166 to 168 °C

compound: COc1ccc(C2(C#N)CCC(=O)CC2)c2c1OC(C)(C)O2
quantity.name: melting point
observed.result: 153 to 154 °C

compound: O=c1oc(-c2ccc(F)cc2)nc2cccc(F)c12
quantity.name: melting point
observed.result: 189 to 193 °C

compound: CCC(n1cncn1)C(O)(Cn1cncn1)c1ccc(Cl)cc1 (centres undefined)
quantity.name: melting point
observed.result: 168 to 169 °C

compound: C[C@H](CN(C(=O)C1(C)C2CCC1CC2)c1ccccn1)N1CCN(c2cccc3[nH]ccc23)CC1 (some centres undefined)
quantity.name: melting point
observed.result: 236 to 238 °C

compound: O=C(O)c1ccc(OC(F)F)c2oc3ccc(C(F)(F)F)cc3c12
quantity.name: melting point
observed.result: 280 °C

compound: CNC(=S)NCCCCC(NC(=O)C(Cc1cccc2ccccc12)Cc1cccc2ccccc12)C(=O)NC(CC(C)C)C(O)C(=O)OC(C)C (centres undefined)
quantity.name: melting point
observed.result: 93 to 95 °C

compound: Cn1c(CC(=O)O)ccc1C(=O)c1ccccc1Cl
quantity.name: melting point
observed.result: 140 to 141 °C

compound: CC(C)(C(=O)OCC(=O)c1ccccc1)n1c(=O)[nH]c2cc3ccccc3cc2c1=O
quantity.name: melting point
observed.result: 184 to 185 °C

compound: CCCCCCCc1ccc(C(=O)CCCC(=O)O)cc1
quantity.name: melting point
observed.result: 101 °C

compound: Nc1nc(-c2ccco2)c(N2CCOCC2)s1
quantity.name: melting point
observed.result: 285 to 288 °C

compound: O=c1nc(-c2ccc(CO)cn2)sc2ccccc12
quantity.name: melting point
observed.result: 247 to 248 °C

compound: O=C(O)Cc1ccc(OCc2ccccc2)c(Cl)c1
quantity.name: melting point
observed.result: 121 to 123 °C

* * *

The entries below are paired with their reported melting point.

molecule: CC(=O)c1cnc2c(n1)CCCC2
melting point: 42 to 45 °C

molecule: CC(=O)NCC1CN(Cc2ccccc2)CCO1 (configuration not stated)
melting point: 110 to 111 °C

molecule: CC(=O)N(C)c1cccc(-c2ccnc3c(C(=O)c4cccs4)cnn23)c1
melting point: 190 to 192 °C

molecule: O=C1Nc2ccc(F)cc2C(C#Cc2ccccn2)(C(F)(F)F)N1 (racemic)
melting point: 155 °C

molecule: NCCNC(=O)CN1CCC(O)C1=O (configuration not stated)
melting point: 110 to 112 °C

molecule: N#Cc1cnc2cc(Br)sc2c1Nc1ccc(Oc2ccccc2)cc1
melting point: 248 to 250 °C

molecule: CCCN(C1=C(O)CC(CCc2ccc(O)cc2)(C2CCCC2)OC1=O)c1ccccc1 (configuration not stated)
melting point: 95 °C

molecule: CN(C)C1=CC(=NS(=O)(=O)c2cccs2)c2ccccc2C1=O
melting point: 183 to 185 °C

molecule: O=C(Cc1cccc(OC(F)(F)F)c1)NCc1cccc2c1C(=O)N(C1CCC(=O)NC1=O)C2=O (configuration not stated)
melting point: 178 to 180 °C

molecule: CC(CO)C1CCC2C3CC=C4CC(O)CC(O)C4(C)C3CCC12C (configuration not stated)
melting point: 205 to 207 °C

molecule: Cc1ccc(-c2nc3ccc(O)cc3n2Cc2ccccc2C(F)(F)F)cc1C
melting point: 178 °C

molecule: O=S(=O)(Nc1cnc(-n2ccnc2)nc1NCc1ccc2c(c1)OCO2)c1ccc(Cl)cc1
melting point: 206 to 207 °C

molecule: COc1cccc2c1CC1(CCCCC1)C2=O
melting point: 94 to 96 °C

molecule: COc1cc(Cl)ccc1C(=O)NCCc1nc(-c2ccncn2)cc(=O)n1C
melting point: 121 to 123 °C

molecule: CCOC(=O)NNC(=O)Nc1ccc(C(F)(F)F)cc1
melting point: 205 to 208 °C

molecule: CC(=O)Nc1nsnc1-c1c(Cl)cccc1Cl
melting point: 180 to 185 °C

molecule: CC(C)(C)NCC(O)c1ccc(OCc2ccccc2)c(C(N)=O)c1 (configuration not stated)
melting point: 120 °C

* * *

compound: NC(=O)NN=Cc1ccc(OC2CCOCC2)cc1
melting point: 208 to 209 °C
--
compound: Cc1cnc(N)c(S(N)(=O)=O)c1
melting point: 187 to 189 °C
--
compound: Cc1nc(CO)c(OCc2ccccc2)c(=O)n1C
melting point: 93 to 95 °C
--
compound: O=C1C[C@@H]2[C@@H](/C=C/C(=O)[C@@H]3OCc4ccccc4O3)[C@H](OC(=O)c3ccccc3)C[C@@H]2O1
melting point: 129 to 130 °C
--
compound: CN1CC(OCC=C(Cl)Cl)(C(F)(F)F)c2cc(Cl)ccc2NC1=O (centres undefined)
melting point: 149 to 150 °C
--
compound: CC(=S)NC[C@H]1CN(c2ccc3c(c2)CCCc2cn[nH]c2-3)C(=O)O1
melting point: 190 to 195 °C
--
compound: CCCc1cc(Cl)c2oc(-c3ccccc3)c(C)c2c1O
melting point: 102 to 104 °C
--
compound: CS(=O)(=O)c1cc(CCC(=O)O)cc(-c2nc(=O)c3ccccc3s2)n1
melting point: 306 °C
--
compound: CC(C)n1nc(-c2cnc(N)nc2-c2cccnc2)ccc1=O
melting point: 204 °C
--
compound: OC(=S)C=Cc1cccc2ccccc12
melting point: 102 to 103 °C
--
compound: CCOC(=O)CC(=O)c1c(C(=O)OC)n(C)c2cc(Cl)ccc12
melting point: 250 to 252 °C
--
compound: Nc1ccc(Br)cc1CO
melting point: 107 to 110 °C
--
compound: CCOC(=O)C(CC)Sc1nc2c(c(=O)[nH]c(=O)n2C)n1Cc1cccc(N)c1 (centres undefined)
melting point: 107 °C
--
compound: COc1ccc2ncc(C#N)c(Nc3ccc(Cl)cc3F)c2c1
melting point: > 250 °C

* * *

The entries below are paired with their reported melting point.
quantity.name: melting point

compound: COC(=O)c1c(C=O)cccc1Oc1nc(OC)cc(OC)n1
observed.result: 91 to 93 °C
//
compound: O=C(c1ccccc1)c1cc(-c2ccc(Cl)cc2)c(N2CCOCC2)s1
observed.result: 180 °C
//
compound: N#CC(C(=O)c1nn(-c2ccccc2)c2c1CSc1ccccc1-2)C(=S)Nc1ccccc1 (stereo unspecified)
observed.result: 167 to 170 °C
//
compound: CC(C)c1nc(N(C)S(C)(=O)=O)nc(-c2ccc(F)cc2)c1/C=C/C=O
observed.result: 86.5 °C
//
compound: COc1ccc2c(n1)C1(CO2)C(=O)N(CC2CCCO2)c2cccc(Br)c21 (stereo unspecified)
observed.result: 110 to 112 °C
//
compound: O=C1NC(=O)c2ccc(-c3ccc(F)cc3)cc2/C1=C/Nc1ccc(CN2CCCC2)cc1
observed.result: 152 to 153 °C
//
compound: Oc1cccc(Cc2n[nH]c3ccccc23)c1
observed.result: 170 to 172 °C
//
compound: COc1cc(C(C)C)c(Oc2cnc(N)nc2N)cc1I
observed.result: 204 to 206 °C
//
compound: O=S(=O)(c1ccc(F)cc1)N1CCCC1c1ccsc1 (racemic)
observed.result: 135 °C
//
compound: CC(=O)N(C(C)C(=O)NC(C)C(=O)OC(C)(C)C)C(CO)c1ccccc1 (stereo unspecified)
observed.result: 38 to 40 °C
//
compound: COc1cc(N2CCN(CCC3CN(C)C(=O)O3)CC2)cc(OC)c1OC (stereo unspecified)
observed.result: 86 to 88 °C
//
compound: CC1(c2ccccc2)OC(=S)N(Nc2ccccc2)C1=O (stereo unspecified)
observed.result: 81 to 85 °C
//
compound: CC1(C)CCC(C)(C)c2cc3c(=O)ccoc3cc21
observed.result: 202 °C
//
compound: N#Cc1cccc(-c2ccc3c(Cl)cnc(Cl)c3c2)c1
observed.result: > 300 °C
//
compound: O=C(O)c1cn(CCc2ccc(Cl)cc2)c2cc(C3CC3)nn2c1=O
observed.result: 220 to 225 °C
//
compound: CCOC(=O)C(Cc1ccc(NCc2ccc3cc(OS(C)(=O)=O)ccc3c2)cc1)OC (stereo unspecified)
observed.result: 94 to 96 °C
//
compound: COC(=O)C1=C(C)N(CCOC(=O)c2ccccc2)C(=O)NC1c1ccc2ccccc2c1 (stereo unspecified)
observed.result: 116 °C
//
compound: O=C(Cn1c(=O)sc2ccc(Cl)cc21)N1CCC(O)CC1
observed.result: 180 °C
//
compound: CCc1nc2c(cnn2CC)c(NC2CCOCC2)c1CNC(=O)c1cccc(C(=O)NCc2ccc(OC)c(-c3cccc(CN4CCN(C)CC4)c3)c2)c1
observed.result: 117 to 119 °C
//
compound: CCOC(=O)c1ccc(CCN2CCN(C(=O)CCc3cc(C(C)(C)C)c(O)c(C(C)(C)C)c3)CC2)cc1
observed.result: 105 to 107 °C
//
compound: COC(=O)Nc1c(C(=O)O)ccc(Cl)c1Cl
observed.result: 155 to 156 °C
